# SYSTEM_TESTED: Tubulin
# MEASUREMENT_NOTES: Inhibition of tubulin polymerization (unknown origin) incubated for 1 hr

{"columns": ["SMILES_REPR", "UNIT_ABBREVIATION", "IC50"],
 "data": [
  ["COc1cc(-c2nc3cc(F)ccc3[nH]2)ccc1OCC(=O)N1CCc2ccccc21", "µM", 5.65]
]}

###

# MEASUREMENT_NOTES: Cytotoxicity against NRK-52E cells assessed as inhibition in cell growth measured after 72 hrs by MTT assay
# Format: toxicity, cell-based
# CONDITIONS_USED: rat

{"columns": ["SMILES_REPR", "IC50 at 72 h"],
 "data": [
  ["COc1ccc2[nH]c(-c3ccc(OCC(=O)N4CCc5ccccc5C4)c(OC)c3)nc2c1", "20.5 µM"],
  ["COc1cc(-c2nc3ccccc3[nH]2)ccc1OCC(=O)N1CCc2ccccc2C1", "> 100 µM"],
  ["COc1cc(-c2nc3cc(F)ccc3[nH]2)ccc1OCC(=O)N1CCc2ccccc2C1", "> 100 µM"],
  ["COc1cc(-c2nc3ccccc3[nH]2)ccc1OCC(=O)N1CCc2ccccc21", "> 100 µM"],
  ["COc1cc(-c2nc3ccccc3[nH]2)ccc1OCC(=O)N1CCN(C(=O)OC(C)(C)C)CC1", "> 100 µM"],
  ["COc1cc(-c2nc3cc(F)ccc3[nH]2)ccc1OCC(=O)N1CCCCC1", "> 100 µM"],
  ["COc1cc(-c2nc3ccccc3[nH]2)ccc1OCC(=O)N1CCCC1", "> 100 µM"],
  ["COc1cc(-c2nc3cc(C)ccc3[nH]2)ccc1OCC(=O)N1CCc2ccccc2C1", "51.9 µM"],
  ["COc1cc(-c2nc3ccccc3[nH]2)ccc1OCC(=O)N1CCN(c2ncccn2)CC1", "> 100 µM"],
  ["COc1ccc2[nH]c(-c3ccc(OCC(=O)N4CCCC4)c(OC)c3)nc2c1", "> 100 µM"],
  ["COc1cc(-c2nc3cc(F)ccc3[nH]2)ccc1OCC(=O)N1CCOCC1", "> 100 µM"],
  ["COc1cc(-c2nc3cc(C)ccc3[nH]2)ccc1OCC(=O)N1CCN(c2ncccn2)CC1", "> 100 µM"],
  ["COc1cc(-c2nc3cc(C)ccc3[nH]2)ccc1OCC(=O)N1CCCCC1", "> 100 µM"],
  ["COc1cc(-c2nc3cc(F)ccc3[nH]2)ccc1OCC(=O)N1CCN(c2ncccn2)CC1", "> 100 µM"],
  ["COc1cc(-c2nc3ccccc3[nH]2)ccc1OCC(=O)N1CCCCC1", "> 100 µM"],
  ["COc1cc(-c2nc3cc(F)ccc3[nH]2)ccc1OCC(=O)N1CCN(C(=O)OC(C)(C)C)CC1", "> 100 µM"],
  ["COc1cc(-c2nc3cc(F)ccc3[nH]2)ccc1OCC(=O)N1CCc2ccccc21", "53.8 µM"]
]}

###

# System: A549
# MEASUREMENT_NOTES: Anticancer activity against human A549 cells assessed as inhibition in cell growth measured after 72 hrs by MTT assay
# Type: functional, cell-based
# CONDITIONS_USED: A549, 72 h
// values below are reported IC50

{"columns": ["SMILES_REPR", "IC50"],
 "data": [
  ["COc1cc(-c2nc3ccccc3[nH]2)ccc1OCC(=O)N1CCCCC1", "> 20 µM"],
  ["COc1ccc2[nH]c(-c3ccc(OCC(=O)N4CCc5ccccc54)c(OC)c3)nc2c1", "8.05 µM"],
  ["COc1cc(-c2nc3cc(C)ccc3[nH]2)ccc1OCC(=O)N1CCCCC1", "> 20 µM"],
  ["COc1cc(-c2nc3cc(F)ccc3[nH]2)ccc1OCC(=O)N1CCN(C(=O)OC(C)(C)C)CC1", "> 20 µM"],
  ["COc1cc(-c2nc3cc(F)ccc3[nH]2)ccc1OCC(=O)N1CCOCC1", "> 20 µM"]
]}

Where these numbers come from: ChEMBL document CHEMBL5390218
